Target: T1, Proteinase-Activated Receptor-2 (human, on human keratinocytes) (human, UniProt P55085 37-397)
T1 sequence (looked up): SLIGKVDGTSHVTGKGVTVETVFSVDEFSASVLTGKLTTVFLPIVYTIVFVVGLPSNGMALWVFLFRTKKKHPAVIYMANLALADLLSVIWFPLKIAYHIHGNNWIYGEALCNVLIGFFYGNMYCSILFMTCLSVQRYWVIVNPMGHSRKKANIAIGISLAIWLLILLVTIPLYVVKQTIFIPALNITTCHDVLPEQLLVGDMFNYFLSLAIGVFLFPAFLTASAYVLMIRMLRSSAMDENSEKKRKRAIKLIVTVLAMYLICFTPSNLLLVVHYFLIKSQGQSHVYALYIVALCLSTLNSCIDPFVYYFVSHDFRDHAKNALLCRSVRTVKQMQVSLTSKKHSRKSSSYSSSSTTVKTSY
Experiment: cell-based or functional assay
MEASURE: Inhibition PAR-2 activity (calcium fluorescence, human keratinocytes, peptide at 1 mg/mL) (%)
# value in %; strip the unit string

Note down Inhibition PAR-2 activity (calcium fluorescence, human keratinocytes, peptide at 1 mg/mL) recorded for Ac-FFQFIV-NH2 [Ac-L-Phe-L-Phe-L-Gln-L-Phe-L-Ile-L-Val-NH2]
24.1

Note down Inhibition PAR-2 activity (calcium fluorescence, human keratinocytes, peptide at 1 mg/mL) recorded for Ac-FFWFHV-NH2 [Ac-L-Phe-L-Phe-L-Trp-L-Phe-L-His-L-Val-NH2]
67.8

Note down Inhibition PAR-2 activity (calcium fluorescence, human keratinocytes, peptide at 1 mg/mL) recorded for Ac-SMQFIS-NH2 [Ac-L-Ser-L-Met-L-Gln-L-Phe-L-Ile-L-Ser-NH2]
52.6

Note down Inhibition PAR-2 activity (calcium fluorescence, human keratinocytes, peptide at 1 mg/mL) recorded for Ac-SMWFIV-NH2 [Ac-L-Ser-L-Met-L-Trp-L-Phe-L-Ile-L-Val-NH2]
43.3

Note down Inhibition PAR-2 activity (calcium fluorescence, human keratinocytes, peptide at 1 mg/mL) recorded for Ac-FFRFHV-NH2 [Ac-L-Phe-L-Phe-L-Arg-L-Phe-L-His-L-Val-NH2]
23.4

Note down Inhibition PAR-2 activity (calcium fluorescence, human keratinocytes, peptide at 1 mg/mL) recorded for Ac-FMWDIS-NH2 [Ac-L-Phe-L-Met-L-Trp-L-Asp-L-Ile-L-Ser-NH2]
26.5

Note down Inhibition PAR-2 activity (calcium fluorescence, human keratinocytes, peptide at 1 mg/mL) recorded for Ac-FFQFHS-NH2 [Ac-L-Phe-L-Phe-L-Gln-L-Phe-L-His-L-Ser-NH2]
37.4

Note down Inhibition PAR-2 activity (calcium fluorescence, human keratinocytes, peptide at 1 mg/mL) recorded for Ac-SMWFIS-NH2 [Ac-L-Ser-L-Met-L-Trp-L-Phe-L-Ile-L-Ser-NH2]
67.8
